SYSTEM TESTED: Dual specificity protein phosphatase 22 (Homo sapiens, UniProt Q9NRW4)
Sequence (Q9NRW4 whole entry): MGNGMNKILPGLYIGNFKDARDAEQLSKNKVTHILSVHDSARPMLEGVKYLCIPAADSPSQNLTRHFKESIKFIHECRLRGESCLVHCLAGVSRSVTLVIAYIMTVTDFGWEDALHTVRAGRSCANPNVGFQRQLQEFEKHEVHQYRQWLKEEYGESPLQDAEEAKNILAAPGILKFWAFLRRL
METHOD NOTES: Inhibition of GST-tagged human recombinant JSP1
MEASURED PARAMETER: IC50

Which IC50 value is on record for COc1nc2ccc(NC(=O)N3CCCC(C(=O)NC4CCCCC4)C3)cc2nc1OC (stereo not drawn) ?
> 100 µM

Okay, and Cc1ccc(-c2nc3ccc(NC(=O)N4CCCC(C(=O)NC5CCCC5)C4)cc3nc2-c2ccc(C)cc2)cc1 (stereo not drawn) ?
> 40 µM

Also CCN(CC)C(=O)C1CCCN(C(=O)Nc2ccc3nc(-c4ccc(Br)cc4)c(-c4ccc(Br)cc4)nc3c2)C1 (stereo not drawn) ?
> 40 µM

Try O=C(Nc1ccc2nc(-c3ccco3)c(-c3ccco3)nc2c1)N1CCCC(C(=O)N2CCCCC2)C1 (stereo not drawn) next.
8.39 µM

Cool, now CC(C)CNC(=O)C1CCCN(C(=O)Nc2ccc3nc(-c4ccco4)c(-c4ccco4)nc3c2)C1 (stereo not drawn)
8.36 µM

What about CCCCNC(=O)C1CCCN(C(=O)Nc2ccc3nc(-c4ccco4)c(-c4ccco4)nc3c2)C1 (stereo not drawn) ?
2.79 µM

Same question for CN(C)C(=O)C1CCCN(C(=O)Nc2ccc3nc(-c4ccco4)c(-c4ccco4)nc3c2)C1 (stereo not drawn) please.
> 40 µM

Okay, and O=C(NC1CCCCC1)C1CCCN(C(=O)Nc2ccc3nc(-c4ccc(F)cc4)c(-c4ccc(F)cc4)nc3c2)C1 (stereo not drawn) ?
> 40 µM
